Every entry's value here was drawn from patent US20120277143A1.

Examples of binders with documented HEK Stat6 Inhibition IC50 follow.
Molecular target: T1, human IL4 (human, UniProt P05112 25-153, biotinylated in the SPR and competition assays (sites not given))
T1 sequence: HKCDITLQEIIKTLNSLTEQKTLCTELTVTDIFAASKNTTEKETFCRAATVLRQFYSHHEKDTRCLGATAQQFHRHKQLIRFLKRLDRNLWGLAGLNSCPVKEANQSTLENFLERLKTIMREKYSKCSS
Experiment: cell-based or functional assay
Field format: number, assumed pM, no unit text.

input: Read off the recorded HEK Stat6 Inhibition IC50 for C06_54C2 (designed binder, ankyrin repeat protein; His-tagged, IMAC-purified) DLGKKLLEAARAGQDDEVRILMANGADVNATDDWGDTLLHLAATDGHLEIVEVLLKNGADVNAIDAMGMTPLHLAAVYGYLEIVEVLLKNGADVNAMDFSGFTPLHLTAFSGHLEIVEVLLKYGADVNAQDKFGKTAFDISIDNGNEDLAEILQKLN
output: 3.2

input: Read off the recorded HEK Stat6 Inhibition IC50 for C06_44F6 (designed binder, ankyrin repeat protein; His-tagged, IMAC-purified) DLGKELLEAARAGQDDEVHILMANGADVNALDDSGYTPLHLAAEDGHLEIVEVLLKHGADVNAMDNIGNTSLHLAAFDGHLEIVEVLLKYGADVNAVDLAGVTPLHVAAFYGHLEIVEVLLKHGADVNAQDKFGKTAFDISIDNGNEDLAEILQKLN
output: 6.4

input: Read off the recorded HEK Stat6 Inhibition IC50 for C06_48F3 (designed binder, ankyrin repeat protein; His-tagged, IMAC-purified) DLGKKLLEAARAGQDDEVRILMANGADVNAFDDSGLTPLHLAADDGHLEIVEVLLKHGADVNAADRMGDTPLHLAAFVGHLEIVEVLLKYGADVNAVDLAGVTPLHVAAFYGHLEIVEVLLKYGADVNAQDKFGKTAFDISIDNGNEDLAEILQKLN
output: 4.7

input: Read off the recorded HEK Stat6 Inhibition IC50 for C06_13A10 (designed binder, ankyrin repeat protein; His-tagged, IMAC-purified) DLGKKLLEAARAGQDDEVRILMANGADVNVSDRIGNTPLHLAAVYVHLEIVEVLLKNGADVNALDDDGLTPLHLAAADGHLEIVEVLLKHGADVNATDSHVWTPLHLAAFFGHLEIVEVLLKYGADVNAQDKFGKTAFDISIDNGNEDLAEILQKLN
output: 5.4

input: Read off the recorded HEK Stat6 Inhibition IC50 for C06_42C7 (designed binder, ankyrin repeat protein; His-tagged, IMAC-purified) DLGKKLLEAASAGQDDEVRILMANGADVNAVDHDGFTPLHLAAADGHLEIVEVLLKHGADVNADDNFGWTPLHLAAFFGHLEIVEVLLKHGADVNAKDQTGLTPLHLAAVDGHLEIVEVLLKHGADVNAQDKFGKTAFDISIDNGNEDLAEILQKLN
output: 6.8

input: Read off the recorded HEK Stat6 Inhibition IC50 for C06_28D4 (designed binder, ankyrin repeat protein; His-tagged, IMAC-purified) DLGKELLEAASAGQDDEVHILMANGADVNAVDHDGFTPLHLAAADGHLEIVEVLLKHGADVNADDNFGWTPLHLAAFFGHLEIVEVLLKHGADVNAKDQTGLTPLHLAAVDGHLEIVEVLLKNGADVNAQDKFGKTAFDISIDNGNEDLAEILQKLN
output: 3.2

input: Read off the recorded HEK Stat6 Inhibition IC50 for C06_26H2 (designed binder, ankyrin repeat protein; His-tagged, IMAC-purified) DLGKKLLEAARAGQDDEVRILMANGADVNAYDSSGDTPLHVAAIDGHLEIVEVLLKHGADVNASDASGDTPLHLAADFGHLKIVEVLLKHGADVNAEDMIGITPLHLAAYNGHLEIVEVLLKNGADVNASDVHGFTPLHLAAFIGHLGIVEVLLKYDADVNAQDKFGKTAFDISIDNRNEDLAEILQKLN
output: 3.3
